Biological target: Respiratory Syncytial Virus fusion glycoprotein (RSV F) on RSV-A2 virus (Respiratory Syncytial Virus subtype A (RSV-A2))
Assay: cell-based or functional assay
READOUT: Neutralization IC50 (RSV subtype A)

The examples below pair each entry with its known result.
# BINDER, Neutralization IC50 (RSV subtype A)
records = [
    ("ADI-41228 (antibody, V domains shown) VH: EVQLLESGPGLVKPSETLSLTCTVSGGSISSYQWNWIRQPPGKGLEWLGYVYYSGSTNYNPSLKSRVTLSVDTSKNQFSLKLSSVTAADTAVYYCARDRRDGSFVFDYWGQGTLVTVSS VL: QSVLIQPASVSGSPGQSITISCTGTSSDVGGYNYVSWYQQHPGKAPKLMIYDVSNRPSGISNRFSGSKSGNTASLTISGLQAEDEADYYCSSYTSSTTLVFGTGTKVTVL", "> 25 µg/mL"),
    ("ADI-41200 (antibody, V domains shown) VH: EVQLLESGGGLVKPGGSLRLSCAASGLTFSDHDMSWVRQAPGKGLEWVSGIGGSGSNTYYAGSVKGRFTISRDNSKNTLYLQMDSLRVEDTAVYYCAKDPYGDYRDYYGMDVWGQGTTVTVSS VL: DIVLTQTPFSLPVTPGEPASISCRSSQSLLKSNGYNYLDWFLQKPGQSPQLLIYLGSNRASGVPDRFSGSGSGTDFTLKISRVEAEDVGVYYCMQTLQALYTFGQGTKVEIK", "> 25 µg/mL"),
]

# next binder below
Query ADI-41162 (antibody, V domains shown) VH: EVQLVQSGAEVKKPGSSVKVSCKASGVTGGTFSSYAISWVRQAPGQGLEWMGGIMPMFGTTNYAQKFQGRVTITADKSTSTAYMELSSLRSEDTAVYYCARDYRDFSPHLDYYYMDVWGKGTTVTVSS VL: DIRLTQSPGTLSLSPGERATLSCRASQSVSTSYLAWYQQKPGQAPRLLIYGASNRATGIPDRFSGSGSGTDFTLTISRLEPEDFAVYYCQQYGRTSWTFGQGTKVDIK yields Neutralization IC50 (RSV subtype A) of > 25 µg/mL
